protocolDetails: Inhibitory activity against protein phosphatase 2A from human red blood cells
pIC50: −log10 of the molar value.
outcomeMeasure: pIC50

Use the examples below as a reference point.
compound	pIC50
C[C@@]12C(=O)OC(=O)[C@]1(C)[C@H]1CC[C@@H]2O1	6.22
CN(C)C(=O)C1C(C(=O)O)[C@@H]2C=C[C@H]1O2.CNC (stereo not given in full)	5.49
O=C(O)c1cccc(NC(=O)C2C(C(=O)O)[C@@H]3C=C[C@H]2O3)c1 (stereo not given in full)	5.15
COC(=O)c1cccc(NC(=O)C2C(C(=O)O)[C@@H]3C=C[C@H]2O3)c1 (stereo not given in full)	4.92
O=C1OC(=O)C2C1[C@@H]1CC[C@H]2O1 (stereo not given in full)	6.02
CCOC(=O)c1ccc(NC(=O)C2C(C(=O)O)[C@@H]3CC[C@H]2O3)cc1 (stereo not given in full)	5.04
CCOC(=O)c1ccc(NC(=O)C2C(C(=O)O)[C@@H]3C=C[C@H]2O3)cc1 (stereo not given in full)	4.68

A. O=C(OC[C@H]1C[C@@H]2O[C@H]1[C@H]1C(=O)OC(=O)[C@H]12)c1ccccc1
B. COC(=O)c1cccc(NC(=O)C2C(C(=O)O)[C@@H]3CC[C@H]2O3)c1 (stereo not given in full)
// query Kindly identify which of A and B has the larger recorded pIC50 value. Record your answer as the label of the chosen record.
// result B

----------
Tested on: A2780
protocolDetails: 50% growth inhibition of A2780 (Human ovarian carcinoma) cell line compared with untreated control cells
Assay type: functional
outcomeMeasure: GI50 (µM)

compound	GI50 [µM]
C[C@@]12C(=O)OC(=O)[C@]1(C)[C@H]1CC[C@@H]2O1 [CANTHARIDIN]	10
O=C1OC(=O)C2C1[C@@H]1CC[C@H]2O1 (stereo not given in full)	39

1. CN(C)C(=O)C1C(C(=O)O)[C@@H]2C=C[C@H]1O2.CNC (stereo not given in full)
2. CC(=O)NC[C@@]12CC[C@@H](O1)C1C(=O)OC(=O)[C@H]12 (stereo not given in full)
// query Hey, between 1 and 2 which has a smaller measured GI50? Record your answer as the label of the chosen record.
// result 1
(1: 40 µM, 2: 95 µM)

1. CCOC(=O)c1ccc(NC(=O)C2C(C(=O)O)[C@@H]3CC[C@H]2O3)cc1 (stereo not given in full)
2. O=C(OC[C@H]1C[C@@H]2O[C@H]1[C@H]1C(=O)OC(=O)[C@H]12)c1ccccc1
// query Kindly identify which of 1 and 2 has the larger recorded GI50 value. Record your answer as the label of the chosen record.
// result 1
(1: 80 µM, 2: 30 µM)

----------
pIC50 overview
protocolDetails: Inhibitory activity against protein phosphatase 2A from human red blood cells
pIC50: −log10 of the molar value.

Use the examples below as a reference point.
compound	pIC50
CN.CNC(=O)C1C(C(=O)O)[C@@H]2C=C[C@H]1O2 (stereo partly specified)	< 4.00
O=C(O)C1C(C(=O)OCc2ccccc2)[C@H]2CC[C@@H]1O2 (single isomer, unassigned)	< 4.00
CC(=O)NC[C@@]12C=C[C@@H](O1)C1C(=O)OC(=O)[C@H]12 (stereo partly specified)	< 4.00
N#CC[C@]12C=C[C@H](O1)[C@@H]1C(=O)OC(=O)C12 (stereo partly specified)	< 4.00
CC(=O)NC[C@@]12CC[C@@H](O1)C1C(=O)OC(=O)[C@H]12 (stereo partly specified)	< 4.00

Next:
// query Any idea what pIC50 was measured for COC(=O)C1C(C(=O)Nc2ccc(Cl)cc2)[C@H]2CC[C@@H]1O2 (stereo partly specified) ?
// result < 4.00

Where do the numbers come from? From ChEMBL document CHEMBL1147524.
